# tested.target: central muscarinic binding site
# experiment.summary: RQNB screening assay: inhibition of radio-labeled quinuclidinyl benzilate (antagonist) binding, rat cerebral cortex tissue
# reported.conditions: R3 is hydrogen; double bond: No; rat cerebral cortex
pIC50: −log10 of the molar value.
Quick list: pIC50 per entry.
property.label: pIC50

C=CCON=CC1CN2CCC1CC2 (stereo not drawn) [R1 = Hydrogen, R2 = Allyl]	6.84
CON=CC1CN2CCC1CC2 (stereo not drawn) [R1 = Hydrogen, R2 = Methyl]	5.86
C#CCON=CC1CN2CCC1CC2 (stereo not drawn) [R1 = Hydrogen, R2 = 2-Propynyl]	6.46

----------
# tested.target: central muscarinic binding site
# experiment.summary: RCMD screening assay: inhibition of radio-labeled cis-methyldioxolane (agonist) binding, rat cerebral cortex tissue
# reported.conditions: R3 is hydrogen; double bond: No; rat cerebral cortex
Listed next: entries and their corresponding IC50.
property.label: IC50

CON=CC1CN2CCC1CC2 (stereo not drawn) [R1 = Hydrogen, R2 = Methyl]	11.8 nM
C=CCON=CC1CN2CCC1CC2 (stereo not drawn) [R1 = Hydrogen, R2 = Allyl]	117 nM
C#CCON=CC1CN2CCC1CC2 (stereo not drawn) [R1 = Hydrogen, R2 = 2-Propynyl]	27 nM
